- Test summary: Volume of distribution at steady state in Sprague-Dawley rat at 5 mg/kg, iv by LC-MS/MS analysis
- Assay type: ADME, organism-based
- Experimental context: in vivo, read-out: Vdss
Measurement name: Vd (L/kg)

Input smiles | Readout number
CC(C)COc1ccc(CNC(=O)N(Cc2ccc(F)cc2)C2CCN(C(=O)CC[C@H](N)C(=O)O)CC2)cc1 | 11

###

- Test summary: Ratio of drug level in brain to plasma of ICR mouse at 5 mg/kg, iv measured after 0.5 hrs by LC-MS/MS analysis
- Assay type: ADME, organism-based
- Experimental context: read-out: BPR
Quick reference: Kp at 0.5 h of the listed items.

Molecule | Kp at 0.5 h
CN1CCC(N(Cc2ccc(F)cc2)C(=O)NCc2ccc(OCC(O)CN3CCC(c4noc5cc(F)ccc45)CC3)cc2)CC1 (configuration not stated) | 1.63
CC(C)COc1ccc(CNC(=O)N(Cc2ccc(F)cc2)C2CCN(C(=O)CC[C@H](N)C(=O)O)CC2)cc1 | 0.038

###

- Test summary: Permeability of the compound by PAMPA
- Type: ADME
- Experimental context: read-out: permeability

Molecule | Papp
CN1CCC(N(Cc2ccc(F)cc2)C(=O)NCc2ccc(OCC(O)CN3CCC(c4noc5cc(F)ccc45)CC3)cc2)CC1 (stereo unspecified) | 4.79 ×10⁻⁶ cm/s

###

- Test summary: Half life in Sprague-Dawley rat at 5 mg/kg, iv by LC-MS/MS analysis
- Assay type: ADME, organism-based
- Experimental context: in vivo

Input smiles | half-life
CC(C)COc1ccc(CNC(=O)N(Cc2ccc(F)cc2)C2CCN(C(=O)CC[C@H](N)C(=O)O)CC2)cc1 | 1010 min

###

- System: hERG (KCNH2) (Homo sapiens, UniProt Q12809)
- Sequence (Q12809 whole entry): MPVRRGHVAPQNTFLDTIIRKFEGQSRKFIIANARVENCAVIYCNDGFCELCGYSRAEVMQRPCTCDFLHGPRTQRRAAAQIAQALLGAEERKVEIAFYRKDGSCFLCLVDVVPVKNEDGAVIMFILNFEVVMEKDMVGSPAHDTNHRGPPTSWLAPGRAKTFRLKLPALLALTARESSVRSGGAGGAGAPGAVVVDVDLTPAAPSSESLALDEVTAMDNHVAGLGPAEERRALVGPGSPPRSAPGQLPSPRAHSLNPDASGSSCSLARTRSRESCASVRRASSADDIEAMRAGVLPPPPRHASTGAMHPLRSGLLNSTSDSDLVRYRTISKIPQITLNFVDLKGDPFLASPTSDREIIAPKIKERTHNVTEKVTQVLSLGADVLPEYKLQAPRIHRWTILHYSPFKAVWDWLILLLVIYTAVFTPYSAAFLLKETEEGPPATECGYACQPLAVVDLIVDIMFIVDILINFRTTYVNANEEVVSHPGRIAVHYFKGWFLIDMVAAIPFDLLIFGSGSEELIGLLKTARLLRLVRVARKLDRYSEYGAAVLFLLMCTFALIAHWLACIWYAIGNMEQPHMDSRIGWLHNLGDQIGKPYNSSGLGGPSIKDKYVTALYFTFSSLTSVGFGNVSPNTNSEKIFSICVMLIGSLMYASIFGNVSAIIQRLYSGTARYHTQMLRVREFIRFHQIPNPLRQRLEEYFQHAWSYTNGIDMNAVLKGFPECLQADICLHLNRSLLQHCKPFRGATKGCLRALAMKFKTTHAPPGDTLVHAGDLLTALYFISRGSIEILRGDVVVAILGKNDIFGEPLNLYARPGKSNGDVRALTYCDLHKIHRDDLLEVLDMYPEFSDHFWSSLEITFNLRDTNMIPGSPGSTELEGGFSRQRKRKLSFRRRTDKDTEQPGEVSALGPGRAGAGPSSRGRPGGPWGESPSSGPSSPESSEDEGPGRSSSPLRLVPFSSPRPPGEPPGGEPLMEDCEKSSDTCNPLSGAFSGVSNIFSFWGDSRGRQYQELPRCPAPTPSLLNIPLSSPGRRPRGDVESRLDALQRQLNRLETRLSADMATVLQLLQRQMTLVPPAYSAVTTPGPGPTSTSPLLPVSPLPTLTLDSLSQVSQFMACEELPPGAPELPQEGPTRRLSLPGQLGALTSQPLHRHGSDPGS
- Test summary: Inhibition of human ERG at 10 uM relative to control

Input smiles | Reading unit | inhibition at 10 µM
CC(C)COc1ccc(CNC(=O)N(Cc2ccc(F)cc2)C2CCN(C(=O)CC[C@H](N)C(=O)O)CC2)cc1 | % | 18.7

###

- Test summary: AUCt in Sprague-Dawley rat at 5 mg/kg, iv by LC-MS/MS analysis
- Type: ADME, organism-based
- Experimental context: in vivo
Measurement name: AUC(0-t)

Input smiles | Result
CC(C)COc1ccc(CNC(=O)N(Cc2ccc(F)cc2)C2CCN(C(=O)CC[C@H](N)C(=O)O)CC2)cc1 | 1910 ng·h/mL

###

- Test summary: AUC (infinity) in Sprague-Dawley rat at 5 mg/kg, iv by LC-MS/MS analysis
- Type: ADME, organism-based
- Set-up: dose 5 mg/kg, time infinity, route intravenous
- Experimental context: in vivo
Measurement name: AUC(0-inf)

Input smiles | Result
CC(C)COc1ccc(CNC(=O)N(Cc2ccc(F)cc2)C2CCN(C(=O)CC[C@H](N)C(=O)O)CC2)cc1 | 2.03 µg·h/mL
